// data source = PubChem BioAssay (Tox21)

# test protocol: qHTS assay to identify small molecule agonists of the retinoic acid receptor (RAR) signaling pathway (AID 1159553)
# condition info: C3RL4 RARE luciferase reporter, agonist, 6 h
Inconclusive results are not listed. Active and inactive are the calls of the source. The call rests on the fitted dose curve; in most records, active means well fitted activation curve with a large enough effect in the repeat runs; inconclusive means weak or mixed curves, or effect the other way; inactive means no such curve, though single readings can be large or run the other way.
Just give me one of these, please: TRUE for active, FALSE for inactive

Solved entries (count: 4):
CN(C)Cc1ccccc1O    FALSE
CCCC(=O)OCCc1ccccc1    FALSE
CCCCNS(=O)(=O)c1ccc(C)cc1    FALSE
C#C[C@]1(OC(C)=O)CC[C@H]2[C@@H]3CCC4=C[C@@H](OC(C)=O)CC[C@@H]4[C@H]3CC[C@@]21C    FALSE

Outcome logged for CCn1c2ccccc2c2cc([N+](=O)[O-])ccc21 in this assay:
FALSE

Outcome logged for O=C(O)c1ccc2cc(C(=O)O)ccc2c1 in this assay:
FALSE

Outcome logged for O=C1CCc2ccc(OCCCCN3CCN(c4cccc(Cl)c4Cl)CC3)cc2N1 in this assay:
FALSE

Outcome logged for Cc1c(C)c([N+](=O)[O-])c(C(C)(C)C)c([N+](=O)[O-])c1C in this assay:
FALSE

Outcome logged for [Cl][Pt-2]([Cl])([Cl])[Cl] in this assay:
FALSE

Outcome logged for CCN(CC)c1ccc2c(-c3ccc(S(=O)(=O)O)cc3S(=O)(=O)[O-])c3ccc(=[N+](CC)CC)cc-3oc2c1 in this assay:
FALSE

Outcome logged for C1CCC(SSC2CCCCC2)CC1 in this assay:
FALSE

Outcome logged for O=C(Nc1ccc2c(O)c(N=Nc3ccc(N=Nc4ccc(S(=O)(=O)O)cc4)cc3)c(S(=O)(=O)O)cc2c1)c1ccccc1 in this assay:
FALSE

Outcome logged for c1cnccn1 in this assay:
FALSE

Outcome logged for CCN1C(=O)c2ccccc2C1Nc1ccc(OCCN2CCCCC2)cc1 (stereo unspecified) in this assay:
FALSE

Outcome logged for COC1=C(OC)C(=O)C(CCCCCCCCCCO)=C(C)C1=O in this assay:
FALSE
